Please go through the items and note down their nonsense suppression.
B1: tRNA (parent)
chain: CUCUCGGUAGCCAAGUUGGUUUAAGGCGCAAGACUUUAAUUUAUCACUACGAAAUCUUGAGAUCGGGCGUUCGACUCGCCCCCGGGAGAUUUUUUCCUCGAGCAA

Variants of: B1
Test: nonsense suppression (GFP-seq) (ratio to wild type); higher = more function; SUP4oc tRNA, yeast GFP reporter sort-seq
This sample holds only a part of the variants without activity.
Give bare numbers.

Solved cases (5 shown):
Look at this variant and give its reported nonsense suppression. CUCUCGGUAGCCAAGUUGGUUUAAGGCGCUAGACUUUAAUUUAUCACUACGAAAUCUUGAGAUCGGGCGUUCGCCUCGCCCCCGGGAGAUUUUUUCCUCGAGCAA [A30U A74C] 0.0264

Quick check: nonsense suppression of CUCUCGGUAGCCAAGUUGGUUUAAGGCGCAAGACUUUAAUUUAUCACUACGAAAUUUUGAGAUCGGGCGUUCGACUCGCCCCCGGGAGAUUUUUUCCUCGAGCAA [C56U] ? 0.15

I would be grateful if you could share the reported nonsense suppression for CUCUCGGUAGCCAAGUGGGUUUAAGGCGCAAGACUUUAAUUUAUCACUACGAAAUCUUGACAUCGGGCGUUCGACUCGCCCCCGGGAGAUUUUUUCCUCGAGCAA [U17G G61C] . 0.371

nonsense suppression for CUUUCGGUAGCCAAGUUGGUUUAAGGCGCAAGACUUUAAUUUAUCACUACGAAAUCUUGAGAUCGGGCGUUCGACCCGCCCCCGGGAGAUUUUUUCCUCGAGCAA [C3U U76C] ? 0.17

Given the variant CCCCCGGUAGCCGAGUUGGUUUAAGGCGCAAGACUUUAAUUUAUCACUACGAAAUCUUGAGAUCGGGCGUUCGACUCGCCCCCGGGAGAUUUUUUCCUCGAGCAA [U2C U4C A13G] , what is its reported nonsense suppression? 0.205

Items follow; give nonsense suppression for each.
1. CUCUCGGUAGCCCAGUUGGUUUAAGGCGCAAGACUUUAAUUUAUCACUACGAAAUCUUGAGAUCGGGCGUUCUACUCGCCCCCGGGAGAUUUUUUCCUCGAGCAA [A13C G73U]
2. CUCUCGGUAGCCAAGUUGGUUUAAGGCGCAAGACUUUAAUUUAUCACUACGAACUCUUGAGAUCGGGCGUUCGACUCGCCCCCGCGAGAUUUUUUCCUCGAGCAA [A54C G85C]
3. CUCUCGGUAGCCAAGUUGGUUUAAGGCGCAGGACUUUAAUUUAUCACUACGAAAUCUUGCGAUCGGGCGUUCGACUCGCCCCCGGGAGAUUUUUUCCUCGAGCAA [A31G A60C]
4. CUCUCGGUAGCCAAGUUGGUUUAAGGCGCAUGACUUUAAUUUAUCACUACGAAAUCUUGAUAUCGGGCGUUCGACUCGCCCCCGGGAGAUUUUUUCCUCGAGCAA [A31U G61U]

0.0412
0.0904
0.177
0.0345

I have 2 variants here; please give me nonsense suppression for each one.
1. CUAUCGGUAGCCUAGUUGGUUUAAGGCGCAAGACUUUAAUUUAUCACUACGAAAUCUUGAGAUCGGGCGUUCGACUCGCCCCCGGGAGAUUUUUUCCUCGAGCAA [C3A A13U]
2. CUCUCGGUAGCCAAGUUGGUUUAAGGCGCAAGACUUUAAUUUAUCACUACGAAAUCUUGAGAUCGGGCGUUCGACUCGCUCCCGGGAAAUUUUUUCCUCGAGCAA [C80U G88A]

0.0379
0.0263
